Ref: BigSolDB 2.1

- condition_notes: in acetone, 309.15 K
readout_kind: solubility (mole fraction)
Answers are plain numbers.

*Q* Look up solubility (mole fraction): CC(CCC(=O)O)(c1ccc(O)cc1)c1ccc(O)cc1
*A* 0.146

----------
- condition_notes: in isopropanol, 312.15 K
readout_kind: solubility (mole fraction)

*Q* Look up solubility (mole fraction): CC(CCC(=O)O)(c1ccc(O)cc1)c1ccc(O)cc1
*A* 0.077

----------
- condition_notes: in methyl acetate, 291.15 K
readout_kind: solubility (mole fraction)

*Q* Look up solubility (mole fraction): CC(CCC(=O)O)(c1ccc(O)cc1)c1ccc(O)cc1
*A* 0.0477

----------
- condition_notes: in methyl acetate, 300.15 K
readout_kind: solubility (mole fraction)

*Q* Look up solubility (mole fraction): CC(CCC(=O)O)(c1ccc(O)cc1)c1ccc(O)cc1
*A* 0.0559

----------
- condition_notes: in methyl acetate, 288.15 K
readout_kind: solubility (mole fraction)
Numbers only.

*Q* Look up solubility (mole fraction): CC(CCC(=O)O)(c1ccc(O)cc1)c1ccc(O)cc1
*A* 0.0453

----------
- condition_notes: in ethyl acetate, 306.15 K
readout_kind: solubility (mole fraction)
One number for each entry.

*Q* Look up solubility (mole fraction): CC(CCC(=O)O)(c1ccc(O)cc1)c1ccc(O)cc1
*A* 0.0604

----------
- condition_notes: in acetone, 291.15 K
readout_kind: solubility (mole fraction)
Numbers only.

*Q* Look up solubility (mole fraction): CC(CCC(=O)O)(c1ccc(O)cc1)c1ccc(O)cc1
*A* 0.127

----------
- condition_notes: in n-butyl acetate, 306.15 K
readout_kind: solubility (mole fraction)
One number for each entry.

*Q* Look up solubility (mole fraction): CC(CCC(=O)O)(c1ccc(O)cc1)c1ccc(O)cc1
*A* 0.029

----------
- condition_notes: in n-butyl acetate, 309.15 K
readout_kind: solubility (mole fraction)
Give bare numbers.

*Q* Look up solubility (mole fraction): CC(CCC(=O)O)(c1ccc(O)cc1)c1ccc(O)cc1
*A* 0.0325

----------
- condition_notes: in n-propanol, 300.15 K
readout_kind: solubility (mole fraction)
Numbers only.

*Q* Look up solubility (mole fraction): CC(CCC(=O)O)(c1ccc(O)cc1)c1ccc(O)cc1
*A* 0.0502

----------
- condition_notes: in ethyl acetate, 303.15 K
readout_kind: solubility (mole fraction)

*Q* Look up solubility (mole fraction): CC(CCC(=O)O)(c1ccc(O)cc1)c1ccc(O)cc1
*A* 0.0576

----------
- condition_notes: in n-butyl acetate, 315.15 K
readout_kind: solubility (mole fraction)
Numbers only.

*Q* Look up solubility (mole fraction): CC(CCC(=O)O)(c1ccc(O)cc1)c1ccc(O)cc1
*A* 0.039

----------
- condition_notes: in n-butanol, 306.15 K
readout_kind: solubility (mole fraction)
Answers are plain numbers.

*Q* Look up solubility (mole fraction): CC(CCC(=O)O)(c1ccc(O)cc1)c1ccc(O)cc1
*A* 0.102

----------
- condition_notes: in n-propanol, 309.15 K
readout_kind: solubility (mole fraction)
Give bare numbers.

*Q* Look up solubility (mole fraction): CC(CCC(=O)O)(c1ccc(O)cc1)c1ccc(O)cc1
*A* 0.0631

----------
- condition_notes: in ethyl formate, 318.15 K
readout_kind: solubility (mole fraction)
Answers are plain numbers.

*Q* Look up solubility (mole fraction): CC(CCC(=O)O)(c1ccc(O)cc1)c1ccc(O)cc1
*A* 0.0221

----------
- condition_notes: in n-butyl acetate, 303.15 K
readout_kind: solubility (mole fraction)
Numbers only.

*Q* Look up solubility (mole fraction): CC(CCC(=O)O)(c1ccc(O)cc1)c1ccc(O)cc1
*A* 0.0258

----------
- condition_notes: in isopropanol, 318.15 K
readout_kind: solubility (mole fraction)
Answers are plain numbers.

*Q* Look up solubility (mole fraction): CC(CCC(=O)O)(c1ccc(O)cc1)c1ccc(O)cc1
*A* 0.0914

----------
- condition_notes: in acetone, 312.15 K
readout_kind: solubility (mole fraction)

*Q* Look up solubility (mole fraction): CC(CCC(=O)O)(c1ccc(O)cc1)c1ccc(O)cc1
*A* 0.15

----------
- condition_notes: in methyl acetate, 318.15 K
readout_kind: solubility (mole fraction)
Give bare numbers.

*Q* Look up solubility (mole fraction): CC(CCC(=O)O)(c1ccc(O)cc1)c1ccc(O)cc1
*A* 0.085

----------
- condition_notes: in acetone, 318.15 K
readout_kind: solubility (mole fraction)
Give bare numbers.

*Q* Look up solubility (mole fraction): CC(CCC(=O)O)(c1ccc(O)cc1)c1ccc(O)cc1
*A* 0.157

----------
- condition_notes: in acetone, 306.15 K
readout_kind: solubility (mole fraction)

*Q* Look up solubility (mole fraction): CC(CCC(=O)O)(c1ccc(O)cc1)c1ccc(O)cc1
*A* 0.143

----------
- condition_notes: in ethanol, 288.15 K
readout_kind: solubility (mole fraction)

*Q* Look up solubility (mole fraction): CC(CCC(=O)O)(c1ccc(O)cc1)c1ccc(O)cc1
*A* 0.0989

----------
- condition_notes: in n-propyl acetate, 294.15 K
readout_kind: solubility (mole fraction)
Answers are plain numbers.

*Q* Look up solubility (mole fraction): CC(CCC(=O)O)(c1ccc(O)cc1)c1ccc(O)cc1
*A* 0.0309

----------
- condition_notes: in sec-butanol, 318.15 K
readout_kind: solubility (mole fraction)
Answers are plain numbers.

*Q* Look up solubility (mole fraction): CC(CCC(=O)O)(c1ccc(O)cc1)c1ccc(O)cc1
*A* 0.14

----------
- condition_notes: in methanol, 318.15 K
readout_kind: solubility (mole fraction)
Answers are plain numbers.

*Q* Look up solubility (mole fraction): CC(CCC(=O)O)(c1ccc(O)cc1)c1ccc(O)cc1
*A* 0.131

----------
- condition_notes: in n-butyl acetate, 297.15 K
readout_kind: solubility (mole fraction)
Numbers only.

*Q* Look up solubility (mole fraction): CC(CCC(=O)O)(c1ccc(O)cc1)c1ccc(O)cc1
*A* 0.0199

----------
- condition_notes: in n-propyl acetate, 303.15 K
readout_kind: solubility (mole fraction)
One number for each entry.

*Q* Look up solubility (mole fraction): CC(CCC(=O)O)(c1ccc(O)cc1)c1ccc(O)cc1
*A* 0.0358

----------
- condition_notes: in ethyl acetate, 312.15 K
readout_kind: solubility (mole fraction)
Give bare numbers.

*Q* Look up solubility (mole fraction): CC(CCC(=O)O)(c1ccc(O)cc1)c1ccc(O)cc1
*A* 0.0667

----------
- condition_notes: in sec-butanol, 294.15 K
readout_kind: solubility (mole fraction)
Answers are plain numbers.

*Q* Look up solubility (mole fraction): CC(CCC(=O)O)(c1ccc(O)cc1)c1ccc(O)cc1
*A* 0.0926

----------
- condition_notes: in ethyl formate, 306.15 K
readout_kind: solubility (mole fraction)
Give bare numbers.

*Q* Look up solubility (mole fraction): CC(CCC(=O)O)(c1ccc(O)cc1)c1ccc(O)cc1
*A* 0.0155

----------
- condition_notes: in ethyl formate, 300.15 K
readout_kind: solubility (mole fraction)
Answers are plain numbers.

*Q* Look up solubility (mole fraction): CC(CCC(=O)O)(c1ccc(O)cc1)c1ccc(O)cc1
*A* 0.0136

----------
- condition_notes: in acetonitrile, 291.15 K
readout_kind: solubility (mole fraction)
Numbers only.

*Q* Look up solubility (mole fraction): CC(CCC(=O)O)(c1ccc(O)cc1)c1ccc(O)cc1
*A* 0.00871

----------
- condition_notes: in ethanol, 291.15 K
readout_kind: solubility (mole fraction)
Give bare numbers.

*Q* Look up solubility (mole fraction): CC(CCC(=O)O)(c1ccc(O)cc1)c1ccc(O)cc1
*A* 0.103

----------
- condition_notes: in methanol, 315.15 K
readout_kind: solubility (mole fraction)
Give bare numbers.

*Q* Look up solubility (mole fraction): CC(CCC(=O)O)(c1ccc(O)cc1)c1ccc(O)cc1
*A* 0.127

----------
- condition_notes: in n-propanol, 315.15 K
readout_kind: solubility (mole fraction)
Give bare numbers.

*Q* Look up solubility (mole fraction): CC(CCC(=O)O)(c1ccc(O)cc1)c1ccc(O)cc1
*A* 0.0732

----------
- condition_notes: in n-butyl acetate, 312.15 K
readout_kind: solubility (mole fraction)
Numbers only.

*Q* Look up solubility (mole fraction): CC(CCC(=O)O)(c1ccc(O)cc1)c1ccc(O)cc1
*A* 0.0356

----------
- condition_notes: in methyl acetate, 297.15 K
readout_kind: solubility (mole fraction)

*Q* Look up solubility (mole fraction): CC(CCC(=O)O)(c1ccc(O)cc1)c1ccc(O)cc1
*A* 0.0526

----------
- condition_notes: in n-butanol, 294.15 K
readout_kind: solubility (mole fraction)

*Q* Look up solubility (mole fraction): CC(CCC(=O)O)(c1ccc(O)cc1)c1ccc(O)cc1
*A* 0.0814
